Attribution: ChEMBL document CHEMBL4814010

test-protocol: Kinetic solubility of compound
Format: physicochemical
protocol-conditions: read-out: Kinetic_solubility
reported-property: solubility kinetic

sample-smiles: CCC[C@@H](NC(=O)c1ccnc2c1CC(=O)N2)[C@@H](O)c1cccc(Cl)c1C
solubility kinetic: ≥ 314 µM
--
sample-smiles: CCC[C@@H](NC(=O)c1cccc2c1CC(=O)N2)[C@@H](O)c1cccc(F)c1Cl
solubility kinetic: ≥ 504 µM

Next compound, solubility kinetic to be filled in.
Which value of solubility kinetic has been reported for CCC[C@@H](NC(=O)c1cccc2c1CC(=O)N2)[C@@H](O)c1cnccc1C in the records?
≥ 346 µM
